Biological target: T1, human GREM1 (hGREM1-His; SEQ ID NO: 595) (human, UniProt O60565 25-184)
T1 construct: also called biotin-hGREM1-His; recombinant human GREM1 protein
T1 sequence: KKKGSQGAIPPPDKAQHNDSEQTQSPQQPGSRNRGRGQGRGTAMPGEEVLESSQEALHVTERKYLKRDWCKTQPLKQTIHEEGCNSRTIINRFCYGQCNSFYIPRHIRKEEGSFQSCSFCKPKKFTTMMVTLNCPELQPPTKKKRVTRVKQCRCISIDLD
Assay: SPR, Biacore T200, 25 C, mAb captured, hGREM1-His injected;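 further: Heparin-supplemented HBS-EP+ used as running buffer, association and dissociation phases followed, Kd computed as koff divided by kon and half-life derived from koff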
readout: kon (M⁻¹ s⁻¹)
Only the number, expressed in M⁻¹ s⁻¹, is required.

{"binder": "H4H6233P (antibody, human IgG4, V domains shown, H4H prefix = human IgG4 Fc) VH: QVQLVESGGGVVQPGRSLRLSCAASGFTFSSYGMHWVRQAPGKGLEWVAVIWYDGSNYYYAASVKGRFTISRDNSENTLYLQMNRLRAEDTAVYYCAREGTGSTEDYFDYWGQGTLVTVSS VL: EIVLTQSPATLSLSPGERATLSCRASQSVSSFLAWYQQKPGQAPRLLIYDASNRATGIPVRFSGSGSGTDFTLTISSLEPEDFAVYYCQQRSNWPPYTFGQGTKLEIK", "kon, M⁻¹ s⁻¹": 91300}
{"binder": "H3M2929N (antibody, V domains shown, H3M prefix marks the Fc (chimeric, mouse constant domains)) VH: QVQLVESGGGVVQPGRSLRLSCAASGFIFSSYGMHWVRQAPGKGLEWVAVIWNDGSNKYSADSVKGRFTVSRDNSKNTLYLQMNSLKAEDTAVYYCARDGEWEVFDYWGQGTLVTVSS VL: DIVMTQSPVTLSASPGERATLSCRASQSVRSNLAWYQEKPGQAPRLLIYGASTRATGIPARFSGSGSGTEFTLTISSLQSEDFAVYYCQQYNDWPPWTFGQGTKVEIK", "kon, M⁻¹ s⁻¹": 125000}

Moving on to another binder below.
## Task For H4H6250P (antibody, human IgG4, V domains shown, H4H prefix = human IgG4 Fc) VH: QVQLVESGGGVVQPGRSLRLSCAASGFTFSNYGMHWVRQAPGKGLEWVAVIWYDGSNKYYADSVKGRFTISRDNSRKTLYLQMNSLRAEDTAIYYCTRDDYGDYDYPFDYWGQGTLVTVSS VL: DIQMTQSPSSLSASVGDRVTITCRASQGIRNDLGWYQQKPGKAPKRLIYAASSLQSGVPSRFSGTGSGTEFTLTISSLQPEDFATYYCLQHNSYPPFTFGPGTKVDIK , what is its reported kon?
## Result 90100
